# reported inhibition at 20 µM; entries follow
- target under test: porcine liver carboxylesterase (CaE) (Sus scrofa)
- Sequence (Q29550 19-566): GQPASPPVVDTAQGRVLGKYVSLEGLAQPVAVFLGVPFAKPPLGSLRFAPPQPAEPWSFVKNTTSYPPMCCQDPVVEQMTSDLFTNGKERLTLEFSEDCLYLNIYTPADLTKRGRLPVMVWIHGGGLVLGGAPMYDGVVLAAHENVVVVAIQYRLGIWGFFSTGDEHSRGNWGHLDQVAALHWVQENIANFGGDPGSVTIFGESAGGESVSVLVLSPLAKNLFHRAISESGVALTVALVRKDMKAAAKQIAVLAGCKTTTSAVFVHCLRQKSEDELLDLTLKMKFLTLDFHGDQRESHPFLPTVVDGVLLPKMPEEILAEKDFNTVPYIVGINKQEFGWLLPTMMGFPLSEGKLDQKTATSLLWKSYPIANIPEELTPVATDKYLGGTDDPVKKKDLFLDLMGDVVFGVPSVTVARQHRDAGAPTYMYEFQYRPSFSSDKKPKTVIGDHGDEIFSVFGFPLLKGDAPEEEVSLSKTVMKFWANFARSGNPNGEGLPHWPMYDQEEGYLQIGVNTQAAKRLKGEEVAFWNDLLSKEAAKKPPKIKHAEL
- procedure text: CaE inhibition (4-nitrophenyl acetate hydrolysis)
- Type: biochemical
- experimental setup: 20 µM, mean ± SEM, n ≥ 3, n.a. = not active at 20 µM
# unit: % | format: bare number

Below: 3 molecules and their reported inhibition at 20 µM.
CN1CCc2c(c3cc(F)ccc3n2CCC(=O)N2c3ccc(N(C)C)cc3Sc3cc(N(C)C)ccc32)C1: 13.8
CN(C)c1ccc2nc3ccc(=[N+](C)C)cc-3sc2c1 [MB, methylene blue, reference compound]: 12.3
Cc1ccc2c(c1)c1c(n2CCC(=O)N2c3ccc(N(C)C)cc3Sc3cc(N(C)C)ccc32)CCN(C)C1: 26

Now examine the next entry.
IN: Determine from records and report inhibition at 20 µM for CN(C)c1ccc2c(c1)Sc1cc(N(C)C)ccc1N2 [MBH2, leucomethylene blue, reference compound]
OUT: 17.2
